Test system: Escherichia coli TOP10
Assay: shrunken log2 fold change of peptide-encoding DNA abundance (4.5 h post-induction vs induction); higher = less antimicrobial activity (less host growth inhibition)
Conditions: time post-induction: 4.5 h; library: site-saturation at positions 5, 18, 19, 20
metric: shrunken log2 fold change
A bare number is all that is needed in reply.

[Q] For the sequence shown here, RRIRDRPPRLPRPRPRPQPFPRP , give the reported shrunken log2 fold change.
[A] -0.0264

###

Test system: Escherichia coli TOP10
Assay: shrunken log2 fold change of peptide-encoding DNA abundance (4.5 h post-induction vs induction); higher = less antimicrobial activity (less host growth inhibition)
Conditions: time post-induction: 4.5 h; library: site-saturation at positions 5, 18, 19, 20
Listed below: shrunken log2 fold change values for each entry.
A bare number is all that is needed in reply.

Here are 6 sequences together with their reported answers.
>>> print(df.to_string())
          primary_sequence  value_observed
0  RRIRNRPPRLPRPRPRPRMVPRP          -0.289
1  RRIRRRPPRLPRPRPRPCFMPRP          -0.207
2  RRIRERPPRLPRPRPRPPNTPRP          -0.284
3  RRIRTRPPRLPRPRPRPSTSPRP          -0.239
4  RRIRMRPPRLPRPRPRPVMQPRP          -0.221
5  RRIRFRPPRLPRPRPRPTMVPRP          -0.129

[Q] For the sequence shown here, RRIRPRPPRLPRPRPRPWTDPRP , give the reported shrunken log2 fold change.
[A] 0.0245

[Q] Try this sequence next: RRIRPRPPRLPRPRPRPEIIPRP
[A] -0.0816

[Q] Try this sequence next: RRIRERPPRLPRPRPRPFGLPRP
[A] -0.0181

[Q] Try this sequence next: RRIRERPPRLPRPRPRPINPPRP
[A] -0.00597

[Q] Try this sequence next: RRIRVRPPRLPRPRPRPFLCPRP
[A] -0.0159

[Q] Try this sequence next: RRIRERPPRLPRPRPRPNKEPRP
[A] -0.0147

[Q] Try this sequence next: RRIRARPPRLPRPRPRPTGFPRP
[A] 0.105

[Q] Try this sequence next: RRIRCRPPRLPRPRPRPRSQPRP
[A] 0.0629

###

Test system: Escherichia coli TOP10
Test: shrunken log2 fold change of peptide-encoding DNA abundance (4.5 h post-induction vs induction); higher = less antimicrobial activity (less host growth inhibition)
Conditions: time post-induction: 4.5 h; library: site-saturation at positions 5, 18, 19, 20
Listed below: shrunken log2 fold change values for each entry.
A bare number is all that is needed in reply.

Here are 4 sequences together with their reported answers.
>>> print(df.to_string())
          primary_sequence                     metric  value_observed
0  RRIRIRPPRLPRPRPRPEVVPRP  shrunken log2 fold change         0.00224
1  RRIRRRPPRLPRPRPRPTEPPRP  shrunken log2 fold change             0.4
2  RRIRTRPPRLPRPRPRPSNNPRP  shrunken log2 fold change          -0.639
3  RRIRCRPPRLPRPRPRPIRAPRP  shrunken log2 fold change         -0.0291

[Q] Could you share what shrunken log2 fold change was measured for RRIRMRPPRLPRPRPRPGLHPRP , tested on Escherichia coli TOP10?
[A] 0.412

[Q] Try this sequence next: RRIRWRPPRLPRPRPRPQTWPRP
[A] 0.223

[Q] Try this sequence next: RRIRYRPPRLPRPRPRPQEIPRP
[A] -0.507

###

Listed below: shrunken log2 fold change values for each entry.
Test system: Escherichia coli TOP10
Assay: shrunken log2 fold change of peptide-encoding DNA abundance (4.5 h post-induction vs induction); higher = less antimicrobial activity (less host growth inhibition)
Settings: time post-induction: 4.5 h; library: site-saturation at positions 5, 18, 19, 20
A bare number is all that is needed in reply.

In [3]: df
Out[3]:
          primary_sequence       target_under_test                     metric  value_observed
0  RRIRIRPPRLPRPRPRPDVHPRP  Escherichia coli TOP10  shrunken log2 fold change        -0.00757

[Q] For the sequence shown here, RRIRPRPPRLPRPRPRPLWIPRP , give the reported shrunken log2 fold change.
[A] -0.128

###

System: Escherichia coli TOP10
Assay: shrunken log2 fold change of peptide-encoding DNA abundance (4.5 h post-induction vs induction); higher = less antimicrobial activity (less host growth inhibition)
Conditions: time post-induction: 4.5 h; library: site-saturation at positions 5, 18, 19, 20
metric: shrunken log2 fold change
A bare number is all that is needed in reply.

Here are 7 sequences together with their reported answers.
          primary_sequence  value_observed
0  RRIRNRPPRLPRPRPRPRYEPRP           -0.27
1  RRIRIRPPRLPRPRPRPDSAPRP          -0.194
2  RRIRTRPPRLPRPRPRPGYHPRP          -0.315
3  RRIRLRPPRLPRPRPRPYRAPRP           -0.21
4  RRIRYRPPRLPRPRPRPLAYPRP           -0.15
5  RRIRHRPPRLPRPRPRPGVNPRP       -0.000777
6  RRIRRRPPRLPRPRPRPGHYPRP         -0.0611

Moving on to the next sequence.
[Q] For the sequence shown here, RRIRFRPPRLPRPRPRPQELPRP , give the reported shrunken log2 fold change.
[A] -0.0341

###

Listed below: shrunken log2 fold change values for each entry.
System: Escherichia coli TOP10
Assay: shrunken log2 fold change of peptide-encoding DNA abundance (4.5 h post-induction vs induction); higher = less antimicrobial activity (less host growth inhibition)
Details: time post-induction: 4.5 h; library: site-saturation at positions 5, 18, 19, 20

>>> df
          primary_sequence  value_observed
0  RRIRIRPPRLPRPRPRPYKHPRP           -1.57
1  RRIRQRPPRLPRPRPRPMTIPRP          -0.227
2  RRIRIRPPRLPRPRPRPQNNPRP          -0.957
3  RRIRRRPPRLPRPRPRPMPYPRP         -0.0473
4  RRIRFRPPRLPRPRPRPTRFPRP           0.429

[Q] For the sequence shown here, RRIRKRPPRLPRPRPRPYCMPRP , give the reported shrunken log2 fold change.
[A] -0.461

[Q] Try this sequence next: RRIRMRPPRLPRPRPRPTRYPRP
[A] 0.628

[Q] Try this sequence next: RRIRARPPRLPRPRPRPNMCPRP
[A] -0.339

[Q] Try this sequence next: RRIRFRPPRLPRPRPRPHWPPRP
[A] 0.251

[Q] Try this sequence next: RRIRYRPPRLPRPRPRPCRAPRP
[A] -0.459

[Q] Try this sequence next: RRIRHRPPRLPRPRPRPNYLPRP
[A] -0.114

[Q] Try this sequence next: RRIRCRPPRLPRPRPRPKFYPRP
[A] -0.309

[Q] Try this sequence next: RRIRGRPPRLPRPRPRPPRSPRP
[A] 1.19

[Q] Try this sequence next: RRIRKRPPRLPRPRPRPRQQPRP
[A] 0.395

[Q] Try this sequence next: RRIRCRPPRLPRPRPRPCTWPRP
[A] -0.0985

###

System: Escherichia coli TOP10;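 also: peptides expressed intracellularly from a pBAD plasmid library in pooled LB shake-flask culture, induced with 0.3% L-arabinose, DNA abundance read by NGS, three biological replicates, DESeq2 with apeglm shrinkage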
Test: shrunken log2 fold change of peptide-encoding DNA abundance (4.5 h post-induction vs induction); higher = less antimicrobial activity (less host growth inhibition)
Conditions: time post-induction: 4.5 h; library: site-saturation at positions 5, 18, 19, 20
Returns one of T or F; T when shrunken log2 fold change is >= 0.2.

[Q] Exam item: decide whether the reported shrunken log2 fold change for RRIRQRPPRLPRPRPRPRDKPRP is at least 0.2.
[A] F

[Q] Try this sequence next: RRIRDRPPRLPRPRPRPFEIPRP
[A] F

[Q] Try this sequence next: RRIRARPPRLPRPRPRPTHFPRP
[A] T

[Q] Try this sequence next: RRIRLRPPRLPRPRPRPRTPPRP
[A] T

[Q] Try this sequence next: RRIRWRPPRLPRPRPRPAHQPRP
[A] F

[Q] Try this sequence next: RRIRHRPPRLPRPRPRPCQQPRP
[A] F

[Q] Try this sequence next: RRIRLRPPRLPRPRPRPFVCPRP
[A] F

[Q] Try this sequence next: RRIRGRPPRLPRPRPRPPGMPRP
[A] T

[Q] Try this sequence next: RRIRVRPPRLPRPRPRPRGDPRP
[A] T

[Q] Try this sequence next: RRIRNRPPRLPRPRPRPVFDPRP
[A] F

[Q] Try this sequence next: RRIRLRPPRLPRPRPRPKYAPRP
[A] F

[Q] Try this sequence next: RRIRKRPPRLPRPRPRPQPMPRP
[A] T

[Q] Try this sequence next: RRIRHRPPRLPRPRPRPVVVPRP
[A] F

[Q] Try this sequence next: RRIRRRPPRLPRPRPRPHPDPRP
[A] T

[Q] Try this sequence next: RRIRHRPPRLPRPRPRPYSCPRP
[A] F

[Q] Try this sequence next: RRIRERPPRLPRPRPRPVCCPRP
[A] F

[Q] Try this sequence next: RRIRERPPRLPRPRPRPLNCPRP
[A] F
